- TESTED_TARGET: CDK13 (Homo sapiens)
- Construct: Immunoblotting of CDK12 and CDK13 in MDA-MB-231 cells treated with increasing concentrations of ZLC491 for 15 h; endogenous in cells; host or cells: MDA-MB-231
- Sequence (Q14004 whole entry): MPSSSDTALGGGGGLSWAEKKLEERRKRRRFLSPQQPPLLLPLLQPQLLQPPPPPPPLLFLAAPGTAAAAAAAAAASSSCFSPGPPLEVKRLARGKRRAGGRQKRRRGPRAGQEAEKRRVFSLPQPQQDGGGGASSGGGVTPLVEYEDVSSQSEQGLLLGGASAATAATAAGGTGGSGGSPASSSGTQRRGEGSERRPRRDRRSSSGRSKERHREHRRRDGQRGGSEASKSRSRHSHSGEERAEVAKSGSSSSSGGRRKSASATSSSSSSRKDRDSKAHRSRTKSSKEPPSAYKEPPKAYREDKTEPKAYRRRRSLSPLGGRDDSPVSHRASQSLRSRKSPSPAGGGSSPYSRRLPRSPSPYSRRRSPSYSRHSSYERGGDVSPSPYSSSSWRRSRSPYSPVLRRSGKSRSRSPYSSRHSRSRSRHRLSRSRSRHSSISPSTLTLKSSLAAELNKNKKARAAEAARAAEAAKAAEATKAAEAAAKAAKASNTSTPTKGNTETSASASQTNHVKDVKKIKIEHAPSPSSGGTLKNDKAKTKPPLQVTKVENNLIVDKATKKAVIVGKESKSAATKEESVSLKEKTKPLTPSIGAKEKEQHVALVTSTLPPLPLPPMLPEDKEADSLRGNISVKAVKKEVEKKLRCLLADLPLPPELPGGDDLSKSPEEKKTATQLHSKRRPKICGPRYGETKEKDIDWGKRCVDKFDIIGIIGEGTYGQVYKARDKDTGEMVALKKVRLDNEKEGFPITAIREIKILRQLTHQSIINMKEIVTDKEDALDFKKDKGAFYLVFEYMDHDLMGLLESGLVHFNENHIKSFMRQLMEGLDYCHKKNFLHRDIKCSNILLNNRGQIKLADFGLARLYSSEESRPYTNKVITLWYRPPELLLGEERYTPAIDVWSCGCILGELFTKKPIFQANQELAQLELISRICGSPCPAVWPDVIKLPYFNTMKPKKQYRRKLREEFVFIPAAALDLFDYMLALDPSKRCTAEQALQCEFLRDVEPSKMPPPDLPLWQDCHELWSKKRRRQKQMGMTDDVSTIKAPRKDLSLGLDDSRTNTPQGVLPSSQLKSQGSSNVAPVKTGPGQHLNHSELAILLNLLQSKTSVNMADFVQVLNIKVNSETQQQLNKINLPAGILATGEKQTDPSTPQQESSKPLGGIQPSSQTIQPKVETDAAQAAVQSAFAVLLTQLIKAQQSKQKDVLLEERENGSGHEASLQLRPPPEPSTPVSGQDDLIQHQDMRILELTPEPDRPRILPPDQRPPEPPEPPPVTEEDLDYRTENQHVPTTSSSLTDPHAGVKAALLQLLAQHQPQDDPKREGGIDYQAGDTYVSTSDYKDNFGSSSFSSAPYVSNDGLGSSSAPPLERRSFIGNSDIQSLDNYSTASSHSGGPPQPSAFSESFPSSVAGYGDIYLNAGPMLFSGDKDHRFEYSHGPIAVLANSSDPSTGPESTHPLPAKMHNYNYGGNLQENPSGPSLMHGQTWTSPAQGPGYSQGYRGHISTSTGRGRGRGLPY
- Sequence (O75909 whole entry partner): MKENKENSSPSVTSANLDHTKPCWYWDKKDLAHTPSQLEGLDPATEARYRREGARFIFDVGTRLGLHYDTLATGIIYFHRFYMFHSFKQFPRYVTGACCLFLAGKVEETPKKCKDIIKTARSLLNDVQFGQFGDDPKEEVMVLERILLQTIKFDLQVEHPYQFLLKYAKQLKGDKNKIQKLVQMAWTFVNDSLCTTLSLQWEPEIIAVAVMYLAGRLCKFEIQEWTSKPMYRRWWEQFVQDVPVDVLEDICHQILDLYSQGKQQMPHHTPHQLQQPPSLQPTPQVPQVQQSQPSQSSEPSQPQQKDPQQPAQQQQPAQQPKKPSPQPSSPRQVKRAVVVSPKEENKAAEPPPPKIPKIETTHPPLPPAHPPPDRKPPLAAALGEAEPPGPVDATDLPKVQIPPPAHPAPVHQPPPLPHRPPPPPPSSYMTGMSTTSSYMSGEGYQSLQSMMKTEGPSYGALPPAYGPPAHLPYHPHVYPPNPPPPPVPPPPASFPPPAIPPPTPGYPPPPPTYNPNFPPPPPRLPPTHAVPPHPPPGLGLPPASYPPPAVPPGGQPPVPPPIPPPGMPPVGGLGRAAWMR
- EXPERIMENTAL_DETAILS: CDK13 degradation in MDA-MB-231 cells by immunoblotting;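 note: percent of CDK13 protein degraded relative to DMSO control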
- Type: cell-based
- EXPERIMENTAL_CONTEXT: MDA-MB-231 cells, 0.3 μM, 15 h, immunoblotting, normalized against α-tubulin
VALUE_KIND: Protein Degradation (%DMSO control, 0.3 μM) CDK13 (%)
Answers are plain numbers, in %.

Recorded results for 6 compounds are shown here.
COMPOUND	UNIT_STRING	NUMERIC_RESULT
N#Cc1ccc(N[C@H]2CC[C@H](N(C(=O)NCc3ccccc3)c3ccc(N4CCN(C[C@H]5CCN(c6ccc7c(c6)C(=O)N(C6CCC(=O)NC6=O)C7=O)C5)CC4)cc3)CC2)nc1 (some centres unmarked) [4f]	%	64
N#Cc1ccc(N[C@H]2CC[C@H](N(C(=O)NCc3ccccc3)c3ccc(N4CCN(C[C@@H]5CCN(c6ccc7c(c6)C(=O)N(C6CCC(=O)NC6=O)C7=O)C5)CC4)cc3)CC2)nc1 (some centres unmarked) [4e]	%	70
N#Cc1ccc(N[C@H]2CC[C@H](N(C(=O)NCc3ccccc3)c3ccc(N4CCN(C5CN(c6ccc7c(c6)C(=O)N(C6CCC(=O)NC6=O)C7=O)C5)CC4)cc3)CC2)nc1 (some centres unmarked) [4k]	%	76
N#Cc1ccc(N[C@H]2CC[C@H](N(C(=O)NCc3ccccc3)c3ccc(N4CCN(C(=O)CNc5ccc6c(c5)C(=O)N(C5CCC(=O)NC5=O)C6=O)CC4)cc3)CC2)nc1 (some centres unmarked) [compound 3]	%	84
N#Cc1ccc(N[C@H]2CC[C@H](N(C(=O)NCc3ccccc3)c3ccc(N4CCN(C5CCN(c6cc7c(cc6F)C(=O)N(C6CCC(=O)NC6=O)C7=O)CC5)CC4)cc3)CC2)nc1 (some centres unmarked) [ZLC491]	%	90
N#Cc1ccc(N[C@H]2CC[C@H](N(C(=O)NCc3ccccc3)c3ccc(N4CCC5(CC4)CCN(c4ccc6c(c4)C(=O)N(C4CCC(=O)NC4=O)C6=O)CC5)cc3)CC2)nc1 (some centres unmarked) [4p]	%	66

# map each compound to its Protein Degradation (%DMSO control, 0.3 μM) CDK13
1. N#Cc1ccc(N[C@H]2CC[C@H](N(C(=O)NCc3ccccc3)c3ccc(N4CCC(CN5CCN(c6ccc7c(c6)C(=O)N(C6CCC(=O)NC6=O)C7=O)CC5)CC4)cc3)CC2)nc1 (some centres unmarked) [4j]
2. N#Cc1ccc(N[C@H]2CC[C@H](N(C(=O)NCc3ccccc3)c3ccc(N4CCC5(CC4)CCN(c4ccc6c(c4)C(=O)N(C4CCC(=O)NC4=O)C6=O)C5)cc3)CC2)nc1 (some centres unmarked) [4o]

1: 71; 2: 47

====

- EXPERIMENTAL_DETAILS: Pharmacokinetics in rats
- Assay type: in vivo, rat
- EXPERIMENTAL_CONTEXT: male, Sprague-Dawley, rat, plasma, po, p.o. 10 mg/kg
- Source text: We further evaluated the in vivo PK properties of compound ZLC491 and the counterpart 4m (without F substitution) in rats, and the results were summarized in Table 2. […] The PK profiles of F-containing compound ZLC491 were further improved. The pharmacokinetic investigation was taken by Shanghai Medicilon Inc. (Project Code: 26048-23001-NG). […] All samples were processed for analysis by precipitation using acetonitrile and analyzed with a partially validated LC/MS/MS method. […]
VALUE_KIND: Cmax at 24 h (ng/mL)
Give bare numbers, in ng/mL.

Provide Cmax at 24 h value for the following compound: N#Cc1ccc(N[C@H]2CC[C@H](N(C(=O)NCc3ccccc3)c3ccc(N4CCN(C5CCN(c6cc7c(cc6F)C(=O)N(C6CCC(=O)NC6=O)C7=O)CC5)CC4)cc3)CC2)nc1 (stereo partly shown)
1310
